# target-entity: Adenosine receptor A2b (Homo sapiens) (UniProt P29275)
# Sequence (P29275 whole entry): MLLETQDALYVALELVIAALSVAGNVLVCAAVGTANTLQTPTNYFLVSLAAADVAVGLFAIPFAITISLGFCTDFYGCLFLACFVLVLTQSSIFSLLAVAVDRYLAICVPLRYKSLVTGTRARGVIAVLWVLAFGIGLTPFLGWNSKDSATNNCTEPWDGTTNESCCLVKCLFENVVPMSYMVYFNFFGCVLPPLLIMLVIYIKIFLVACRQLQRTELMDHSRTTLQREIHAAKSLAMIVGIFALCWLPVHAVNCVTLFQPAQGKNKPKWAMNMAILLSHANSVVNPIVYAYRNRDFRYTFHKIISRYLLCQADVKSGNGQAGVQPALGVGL
# experiment-description: Displacement of [3H]DPCPX from human adenosine A2B receptor expressed in HEK293 cells at 10 uM after 30 mins by beta scintillation counting
# Assay type: cell-based
reported-endpoint: inhibition (%)

// worked examples, inhibition included
In [3]: df
Out[3]:
                                   compound                             target_entity  recorded_result
0            COCCNC(=O)c1cc2cc(Cl)ccc2oc1=N  Adenosine receptor A2b (Homo sapiens) (UniProt P29275)                9
1      COc1cc(Br)cc2cc(C(=O)NCCCO)c(=N)oc12  Adenosine receptor A2b (Homo sapiens) (UniProt P29275)               30
2  CCC(CO)NC(=O)c1cc2cc(Cl)ccc2oc1=N (stereo unspecified)  Adenosine receptor A2b (Homo sapiens) (UniProt P29275)                9
3              COc1cccc2cc(C(C)=O)c(=O)oc12  Adenosine receptor A2b (Homo sapiens) (UniProt P29275)               15

(I) O=C(NCCCO)c1cc2cccc(O)c2oc1=O
(II) COc1ccc(-n2cnc(C#N)c2NC(=O)c2cc3cccc(OC)c3oc2=N)cc1
Inquiry: # returns the entry with the larger inhibition; inputs I and II API: response body contains the label of the selected item.
Reply text: I

(1) COc1cccc2cc(C(=O)Nc3c(C#N)ncn3-c3ccc(F)cc3)c(=N)oc12
(2) N=c1oc2ccc(Br)cc2cc1C(=O)NCCO
Inquiry: Please indicate which item has the smaller measured inhibition: 1 versus 2 API: response body contains the label of the selected item.
Reply text: 2
(2: 15%, 1: 30%)

(I) O=C(NCC(O)CO)c1cc2cccc(O)c2oc1=O (stereo unspecified)
(II) CCOC(CNC(=O)c1cc2cccc(OC)c2oc1=N)OCC
Inquiry: # returns the entry with the larger inhibition; inputs I and II API: response body contains the label of the selected item.
Reply text: II
(II: 51%, I: 29%)

* * *

Reported values: Ki for Adenosine receptor A2a (Homo sapiens), one per item.
reported-endpoint: Ki (nM)

>>> df
                          smiles_code  reported_endpoint  recorded_result
0      COC(=O)/C(C#N)=C/c1cccc(OC)c1O                 Ki              316
1     COc1cccc2cc(C(=O)NCCO)c(=N)oc12                 Ki             1000
2  COc1cccc2cc(C(=O)NCCCCCO)c(=N)oc12                 Ki             1000

(I) COc1cccc2cc(C(=O)Nc3c(C#N)ncn3-c3ccccc3)c(=N)oc12
(II) COc1cccc2cc(C(=O)NCCc3ccc(O)cc3)c(=N)oc12
(III) COc1cccc2cc(C(=O)NC3CCCC3)c(=N)oc12
Inquiry: Order field: Ki | Direction: descending (largest first) Answer by writing out the labels in the requested order.
Reply text: I, III, II

* * *

# target-entity: Adenosine receptor A1 (Homo sapiens) (UniProt P30542)
# Sequence (whole entry): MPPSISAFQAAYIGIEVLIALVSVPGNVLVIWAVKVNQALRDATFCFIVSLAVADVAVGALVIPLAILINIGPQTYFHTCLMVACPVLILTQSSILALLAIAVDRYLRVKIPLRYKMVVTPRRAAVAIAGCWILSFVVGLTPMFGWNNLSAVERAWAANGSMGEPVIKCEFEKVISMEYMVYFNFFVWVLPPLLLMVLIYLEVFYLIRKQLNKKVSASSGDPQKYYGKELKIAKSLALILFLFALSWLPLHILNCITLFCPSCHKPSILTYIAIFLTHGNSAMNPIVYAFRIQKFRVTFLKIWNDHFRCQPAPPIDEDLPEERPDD
# experiment-description: Displacement of [3H]DPCPX from human adenosine A1 receptor expressed in CHO cells at 10 uM after 60 mins by beta scintillation counting
# Format: cell-based
reported-endpoint: inhibition (%)

// worked examples, inhibition included
>>> df
                                   molecule                             target_entity  reported_endpoint  recorded_result
0                O=C(NCCCO)c1cc2ccccc2oc1=O  Adenosine receptor A1 (Homo sapiens) (UniProt P30542)         inhibition               24
1            COCCNC(=O)c1cc2cc(Cl)ccc2oc1=N  Adenosine receptor A1 (Homo sapiens) (UniProt P30542)         inhibition               17
2  COc1cccc2cc(C(=O)NCC(O)CO)c(=O)oc12 (stereo not drawn)  Adenosine receptor A1 (Homo sapiens) (UniProt P30542)         inhibition               14
3  COc1cccc2cc(C(=O)Nc3c(C#N)ncn3-c3ccccc3)c(=N)oc12  Adenosine receptor A1 (Homo sapiens) (UniProt P30542)         inhibition               33
4              COc1cccc2cc(C(C)=O)c(=O)oc12  Adenosine receptor A1 (Homo sapiens) (UniProt P30542)         inhibition               10
5      CCOC(CNC(=O)c1cc2cccc(OC)c2oc1=N)OCC  Adenosine receptor A1 (Homo sapiens) (UniProt P30542)         inhibition               40
6             O=C(NCCCO)c1cc2cccc(O)c2oc1=O  Adenosine receptor A1 (Homo sapiens) (UniProt P30542)         inhibition               18
7           COc1cccc2cc(C(=O)NCCO)c(=N)oc12  Adenosine receptor A1 (Homo sapiens) (UniProt P30542)         inhibition               47

(I) COc1cccc2cc(C(=O)Nc3c(C#N)ncn3-c3ccc(F)cc3)c(=N)oc12
(II) COc1cccc2cc(C(=O)N[C@@H](CO)C(=O)O)c(=O)oc12
(III) N=c1oc2ccc(Br)cc2cc1C(=O)NCCO
(IV) N=c1oc2ccc(Br)cc2cc1C(=O)NC1CCCCC1
Inquiry: Your job: order these 4 records by inhibition, ascending. Answer by writing out the labels in the requested order.
Reply text: IV, II, III, I
(IV: 5%, II: 12%, III: 26%, I: 46%)

(1) COc1ccc(-n2cnc(C#N)c2NC(=O)c2cc3cccc(OC)c3oc2=N)cc1
(2) O=C(NCC(O)CO)c1cc2cc(Cl)ccc2oc1=O (stereo not drawn)
Inquiry: # returns the entry with the larger inhibition; inputs 1 and 2 API: response body contains the label of the selected item.
Reply text: 1

* * *

# target-entity: Adenosine receptor A2a (Homo sapiens, UniProt P29274)
# Sequence (P29274 whole entry): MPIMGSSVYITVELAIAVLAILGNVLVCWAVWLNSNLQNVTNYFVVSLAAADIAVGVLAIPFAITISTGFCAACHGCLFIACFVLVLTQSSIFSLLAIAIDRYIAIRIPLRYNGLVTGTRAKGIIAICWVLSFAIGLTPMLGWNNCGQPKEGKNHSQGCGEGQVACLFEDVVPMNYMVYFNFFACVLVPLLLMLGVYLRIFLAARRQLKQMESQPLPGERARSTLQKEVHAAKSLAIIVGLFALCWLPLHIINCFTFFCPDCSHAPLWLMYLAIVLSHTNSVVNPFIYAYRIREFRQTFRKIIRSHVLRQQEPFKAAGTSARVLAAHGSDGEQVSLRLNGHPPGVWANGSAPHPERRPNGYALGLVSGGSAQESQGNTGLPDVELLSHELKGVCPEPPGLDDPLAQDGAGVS
# experiment-description: Displacement of [3H]ZM241385 from human adenosine A2A receptor expressed in human HeLa cells at 10 uM after 30 mins by beta scintillation counting
# Format: cell-based
reported-endpoint: inhibition (%)

// worked examples, inhibition included
In [3]: df
Out[3]:
                                   compound  recorded_result
0             O=C(NCCCO)c1cc2cccc(O)c2oc1=O                1
1  COc1ccc(-n2cnc(C#N)c2NC(=O)c2cc3cccc(OC)c3oc2=N)cc1               58
2             O=C(NC1CCCC1)c1cc2ccccc2oc1=O                1

(I) O=C(O)CNC(=O)c1cc2ccccc2oc1=O
(II) COc1cccc2cc(C(=O)NCCO)c(=O)oc12
(III) CCC(CO)NC(=O)c1cc2cc(Cl)ccc2oc1=N (stereo not drawn)
(IV) COCCNC(=O)c1cc2cc(Cl)ccc2oc1=N
(V) CCC(CO)NC(=O)c1cc2cc(Br)ccc2oc1=N (stereo not drawn)
Inquiry: Your job: order these 5 records by inhibition, ascending. Answer by writing out the labels in the requested order.
Reply text: II, I, V, IV, III

(I) COc1cccc2cc(C(=O)NCC(=O)O)c(=O)oc12
(II) COc1cccc2cc(C(=O)Nc3c(C#N)ncn3-c3ccc(C#N)cc3)c(=N)oc12
Inquiry: Please indicate which item has the smaller measured inhibition: I versus II API: response body contains the label of the selected item.
Reply text: I

* * *

Reported values: Ki for Adenosine receptor A2b (Homo sapiens), one per item.
reported-endpoint: Ki (µM)

>>> print(df.to_string())
                                smiles_code  units_label  recorded_result
0  COc1cccc2cc(C(=O)NCCCNC(=O)c3cc4cccc(OC)c4oc3=N)c(=N)oc12           µM               10

(I) COc1cccc2cc(C(=O)NC3CCCCC3)c(=N)oc12
(II) COc1cccc2cc(C(=O)NCCc3ccc(O)cc3)c(=N)oc12
Inquiry: Please indicate which item has the smaller measured Ki: I versus II API: response body contains the label of the selected item.
Reply text: II
(II: 0.631 µM, I: 20 µM)

src = ChEMBL document CHEMBL2040792
